Numbers sourced from patent US8546377B2.

# measured-target: 5HT2B receptors (Homo sapiens)
# Construct: expressed in transfected cells; host or cells: CHO-K1 cells
# Sequence (P41595 whole entry): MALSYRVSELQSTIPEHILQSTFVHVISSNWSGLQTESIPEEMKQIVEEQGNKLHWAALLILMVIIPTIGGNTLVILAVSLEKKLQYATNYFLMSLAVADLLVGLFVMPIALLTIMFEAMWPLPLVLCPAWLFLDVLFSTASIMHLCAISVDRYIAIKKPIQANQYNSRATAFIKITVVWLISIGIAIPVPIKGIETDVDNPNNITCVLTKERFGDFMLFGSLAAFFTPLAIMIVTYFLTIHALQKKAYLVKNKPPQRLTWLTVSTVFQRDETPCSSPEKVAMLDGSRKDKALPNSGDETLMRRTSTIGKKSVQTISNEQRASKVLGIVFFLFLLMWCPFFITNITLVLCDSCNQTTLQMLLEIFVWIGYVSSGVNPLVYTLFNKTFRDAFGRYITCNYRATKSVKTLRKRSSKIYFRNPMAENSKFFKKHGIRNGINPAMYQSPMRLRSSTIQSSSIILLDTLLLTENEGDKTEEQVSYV
# method-description: Human 5-HT2B functional assay in CHO-K1 cells (calcium flux, FLIPR)
# Format: cell-based
# applied-conditions: CHO-K1 cells; percentage relative to the effect of serotonin; read-out: Emax (%), 5-HT2B Agonist Activity
metric: Emax (%)
Give the quantity in %, number only.

Worked set:
{"columns": ["molecule", "Emax [%]"],
 "data": [
  ["COc1cccc(-c2ccc3c(c2)N2CCNC[C@@H]2CCO3)c1", 25],
  ["Oc1ccc(-c2ccc3c(c2)N2CCNC[C@@H]2CCO3)cc1", 15],
  ["C1=C(c2ccc3c(c2)N2CCNC[C@@H]2CCO3)CCOC1", 20],
  ["C[C@H](Oc1ccc2c(c1)N1CCNCC1CC(=O)N2)c1ccccc1F (stereo partly drawn)", 20],
  ["O=C1CC2CNCCN2c2cc(CCc3ccccc3F)ccc2N1 (stereo not drawn)", 50],
  ["Cc1cccc(CCOc2ccc3c(c2)N2CCNC[C@@H]2CC(=O)N3)c1", 10],
  ["c1cc(-c2ccc3c(c2)N2CCNC[C@@H]2CCO3)co1", 40],
  ["FC(F)(F)c1ccc2c(c1)N1CCNC[C@@H]1CCO2", 70]
]}

Attention now turns to another entry.
Input line: May I ask what Emax has been recorded for `Cc1ccccc1-c1ccc2c(c1)N1CCNC[C@@H]1CCO2` ?
Output line: 20

----------
# measured-target: h-5-HT6 receptor (Homo sapiens)
# Construct: expressed in transfected cells; host or cells: HEK293 cells (membrane preparation)
# Sequence (P50406 whole entry): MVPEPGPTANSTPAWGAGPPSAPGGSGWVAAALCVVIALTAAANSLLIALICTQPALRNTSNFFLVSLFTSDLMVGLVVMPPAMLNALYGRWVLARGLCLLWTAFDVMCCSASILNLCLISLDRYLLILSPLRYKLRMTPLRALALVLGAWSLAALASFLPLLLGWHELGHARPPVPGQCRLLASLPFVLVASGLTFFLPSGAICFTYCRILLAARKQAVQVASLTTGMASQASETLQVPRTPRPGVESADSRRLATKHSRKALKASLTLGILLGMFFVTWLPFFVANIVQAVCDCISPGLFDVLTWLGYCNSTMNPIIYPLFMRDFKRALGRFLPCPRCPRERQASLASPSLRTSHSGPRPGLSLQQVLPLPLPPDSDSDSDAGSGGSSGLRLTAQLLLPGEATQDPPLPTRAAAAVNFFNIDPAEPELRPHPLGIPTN
# method-description: Human 5-HT6 receptor radioligand binding assay ([3H]-LSD, HEK293 membranes)
# applied-conditions: HEK293 membranes, 1 nM [3H]-lysergic acid diethylamide, 3.5 hours at room temperature; read-out: Ki (μM), 5-HT6 Agonist Site Radioligand Binding
metric: Ki (µM)
Numbers only here, please. The scale is µM.

{"columns": ["compound", "Ki [µM]"],
 "data": [
  ["Cc1ccc(S(=O)(=O)Nc2ccc3c(c2)NC(=O)CC2CNCCN32)cc1 (stereo not drawn) [Example 99]", 0.0221],
  ["Cc1cc(C)cc(S(=O)(=O)Nc2ccc3c(c2)NC(=O)CC2CNCCN32)c1 (stereo not drawn) [Example 129]", 0.0132]
]}

Now consider a different compound.
Input line: Please report the recorded Ki for N#Cc1ccc(S(=O)(=O)Nc2ccc3c(c2)NC(=O)CC2CNCCN32)cc1 (stereo not drawn) [Example 121] .
Output line: 0.621

----------
# measured-target: 5HT2C receptors (Homo sapiens, UniProt P28335)
# Sequence (P28335 33-458): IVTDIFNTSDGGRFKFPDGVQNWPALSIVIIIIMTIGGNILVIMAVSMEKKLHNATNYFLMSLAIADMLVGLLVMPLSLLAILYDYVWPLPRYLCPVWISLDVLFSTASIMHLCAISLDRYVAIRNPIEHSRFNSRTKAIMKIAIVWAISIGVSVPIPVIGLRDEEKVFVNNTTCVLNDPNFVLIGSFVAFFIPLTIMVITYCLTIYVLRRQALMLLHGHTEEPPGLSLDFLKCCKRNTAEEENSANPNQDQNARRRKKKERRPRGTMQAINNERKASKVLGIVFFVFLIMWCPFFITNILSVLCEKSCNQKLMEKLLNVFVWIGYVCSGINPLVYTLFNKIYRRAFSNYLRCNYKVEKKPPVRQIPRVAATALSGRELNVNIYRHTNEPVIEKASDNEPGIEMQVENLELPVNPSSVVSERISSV
# method-description: Human 5-HT2C functional assay in CHO-K1 cells (calcium flux, FLIPR)
# Format: cell-based
# Parameters: expressed in transfected cells; host or cells: CHO-K1 cells
# applied-conditions: CHO-K1 cells over-expressing 5HT2C, calcium flux; read-out: EC50 (μM), 5-HT2c Agonist Activity
# Method: (iii) Human 5-HT2C and 5-HT2B Functional Assay in CHO-K1 Cells […] Fluorescence measurements were read at 25° C. at an excitation wavelength of 480 nm and an emission wavelength of 530 nm in FLIPR (MDS). Baseline fluorescence was measured for the first 10 seconds and then 15 μL of 4× concentrations of serotonin/test compounds was added to the cell plate. The fluorescence intensity was captured every second for the first 1 minute followed by every 5 seconds for an additional 2 minutes. […]
metric: EC50 (µM)
Give the value, in units of µM, as a plain number.

Input line: Reported EC50, compound CC(C)COc1cccc(-c2ccc3c(c2)N2CCNCC2CC(=O)N3)c1 (centres unmarked) : ____
Output line: 0.02

Input line: Fill in: EC50 of `O=C1C[C@H]2CNCCN2c2cc(OCCc3cccc(Cl)c3)ccc2N1` is ___
Output line: 0.001

Input line: Any idea what EC50 was measured for `CS(=O)(=O)c1cccc(-c2cccc3c2OCC[C@H]2CNCCN32)c1` ?
Output line: 0.04

Input line: What does the record list as EC50 for O=C1CC2CNCCN2c2cc(-c3ccc4ccccc4c3)ccc2N1 (centres unmarked) ?
Output line: 0.9

Input line: What does the data say about its EC50? Entry: O=C1CC2CNCCN2c2cc(-c3cccc(-c4ccccc4)c3)ccc2N1 (centres unmarked)
Output line: 0.04

Input line: Consider the compound `FC(F)(F)c1ccc2c(c1)OCC[C@H]1CNCCN21` and give its measured EC50.
Output line: 0.07

Input line: Reported EC50 for `CS(=O)(=O)c1cccc(-c2ccc3c(c2)N2CCNC[C@@H]2CCO3)c1` : what is it?
Output line: 0.009

Input line: Any idea what EC50 was measured for COc1ccccc1-c1ccc2c(c1)N1CCNCC1CC(=O)N2 (centres unmarked) ?
Output line: 0.09

Input line: So what does the record say about EC50 for CN1C(=O)CC2CNCCN2c2cc(CCc3ccccc3)ccc21 (centres unmarked) ?
Output line: 0.07

Input line: GET /values?readout=EC50&item= `Cc1ccc(-c2ccc3c(c2)N2CCNC[C@@H]2CCO3)cc1`
Output line: 0.4

Input line: Recorded EC50 of CCOc1ccc2c(c1)N1CCNCC1CC(=O)N2 (centres unmarked) , please.
Output line: 0.03

Input line: Request the reported EC50 associated with O=C1CC2CNCCN2c2cc(OCc3ccccc3C(F)(F)F)ccc2N1 (centres unmarked)
Output line: 0.0295

Input line: Item under review: CCOC(=O)c1ccc2c(c1)N1CCNCC1CC(=O)N2 (centres unmarked) . Reported EC50?
Output line: 0.2

----------
Listed next: entries and their corresponding Emax.
# measured-target: 5HT2C receptors (Homo sapiens, UniProt P28335)
# method-description: Human 5-HT2C functional assay in CHO-K1 cells (calcium flux, FLIPR)
# Type: cell-based
# Set-up: expressed in transfected cells; host or cells: CHO-K1 cells
# applied-conditions: CHO-K1 cells; percentage relative to the effect of serotonin; read-out: Emax (%), 5-HT2c Agonist Activity

Please review the entries below; each comes with its answer.
{"columns": ["compound", "Emax"],
 "data": [
  ["COc1cccc(-c2ccc3c(c2)N2CCNC[C@@H]2CCO3)c1", "> 120%"],
  ["O=C1C[C@H]2CNCCN2c2cc(OCC3CC3)ccc2N1", "> 120%"],
  ["CC(C)c1cccc(-c2ccc3c(c2)N2CCNCC2CC(=O)N3)c1 (stereo not shown)", "> 120%"],
  ["CC(=O)c1cccc(-c2ccc3c(c2)N2CCNC[C@@H]2CCO3)c1", "> 120%"]
]}

Input line: Suppose we examine the compound CC(O)c1cccc(-c2cccc3c2OCC[C@H]2CNCCN32)c1 (stereo partly shown) ; what Emax value has been reported?
Output line: 105%

Input line: I am curious: what Emax value has been reported for `O=C1C[C@H]2CNCCN2c2cc(OCCc3cccc(F)c3)ccc2N1` ?
Output line: > 120%

Input line: Quick one: Emax of CCc1cccc(-c2ccc3c(c2)N2CCNCC2CC(=O)N3)c1 (stereo not shown) ?
Output line: > 120%

Input line: Can you look up the measured Emax of O=C1CC2CNCCN2c2cc(/C=C/c3cc(F)cc(F)c3)ccc2N1 (stereo not shown) for me?
Output line: > 120%

Input line: Fill in the blank: the reported Emax of O=C1CC2CNCCN2c2cc(CCc3ccccc3C(F)(F)F)ccc2N1 (stereo not shown) is ____.
Output line: > 120%

Input line: I would be grateful if you could share the reported Emax for `Fc1cccc(-c2ccc3c(c2)N2CCNC[C@@H]2CCO3)c1` .
Output line: > 120%

Input line: If you can, please state the reported Emax value of `O=C1C[C@H]2CNCCN2c2cc(CCc3ccccc3)ccc2N1` .
Output line: > 120%

Input line: Fill in the blank: the reported Emax of `CS(=O)(=O)c1ccccc1-c1ccc2c(c1)N1CCNC[C@@H]1CCO2` is ____.
Output line: > 120%

Input line: Need Emax of O=C1CC2CNCCN2c2cc(OCCc3cccc(F)c3)ccc2N1 (stereo not shown) , thanks.
Output line: 100%
